Hello, the source for this data is patent US11891400B2, in case you need it.

Tested on: IFNα signaling through pSTAT1 in TF1 cells
ASSAY_EXPLANATION: Inhibition of IFNα signaling through pSTAT1 in TF1 cells
Format: cell-based
SETTINGS: Homo sapiens, TF-1, 20 min, 10 ng/ml IFNα2 for 20 minutes, AlphaLISA, geometric mean (SEM), read-out: IC50, inhibition of p-Stat1 (Tyr701)
Method: TF1 cells (ATCC, CL-2003) are grown in RPMI 1640 (GIBCO) supplemented with 10% dialyzed FBS, 0.1 mg/ml Ampicillin and 2 ng/mL granulocyte macrophage colony stimulating factor. TF1 cells (100 K per well) are seeded in a 96-well poly-D-lysine coated plates in serum-free DMEM and incubated overnight at 37° C. under 5% CO2. Example 1 is serially diluted in DMSO, added to the cells, and incubated at 37° C. for 1 hr. Cells are then stimulated with 10 ng/ml IFNα2 at 37° C. for 20 minutes. […]
REPORTED_ENDPOINT: pIC50
pIC50 is defined as minus the log10 of a concentration measured in mol/L.

Assign pIC50 to the following record: CCOc1ccccc1Nc1cc(NC)n2ncc(C(=O)N[C@@H]3CCN(C)C3=O)c2n1 (single isomer, unassigned) [Example 2]
8.00

Respond only with pIC50 recorded for CNc1cc(Nc2ccccc2OC)nc2c(C(=O)N[C@@H]3CCN(C)C3=O)cnn12 [Example 1]
8.10

###

TARGET_OF_ASSAY: TYK2 JH2 (Homo sapiens)
Construct: The pseudokinase domain (JH2) of human JAK (Janus family of cytoplasmic tyrosine kinases) family tyrosine kinase 2 (TYK2)
Sequence (P29597 589-875 limits assumed): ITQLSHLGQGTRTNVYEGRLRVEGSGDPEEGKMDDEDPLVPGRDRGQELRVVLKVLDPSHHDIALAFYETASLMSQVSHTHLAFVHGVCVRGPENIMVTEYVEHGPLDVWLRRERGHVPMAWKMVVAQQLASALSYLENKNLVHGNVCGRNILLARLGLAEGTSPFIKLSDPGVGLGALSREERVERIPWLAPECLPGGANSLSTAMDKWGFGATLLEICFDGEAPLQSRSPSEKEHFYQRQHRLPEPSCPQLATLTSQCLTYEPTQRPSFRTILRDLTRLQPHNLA
ASSAY_EXPLANATION: Binding to TYK2 JH2 by Scintillation Proximity Assay
SETTINGS: His-tagged TYK2 JH2, 3H-labelled ligand 50 nM, SPA; geometric mean (SEM); read-out: IC50, inhibition of radioligand binding to TYK2 JH2
REPORTED_ENDPOINT: IC50

CCOc1ccccc1Nc1cc(NC)n2ncc(C(=O)N[C@@H]3CCN(C)C3=O)c2n1 (single isomer, unassigned); 40 nM

# input for lookup
Provide IC50, system TYK2 JH2 (Homo sapiens), entry `CNc1cc(Nc2ccccc2OC)nc2c(C(=O)N[C@@H]3CCN(C)C3=O)cnn12`
45 nM
